- tested_on: GHSR-1a (HEK293/GHSR1a cell line) (Homo sapiens, UniProt Q92847)
- Construct: expressed in transfected cells; host or cells: HEK293/GHSR1a cell line
- Sequence (Q92847 whole entry): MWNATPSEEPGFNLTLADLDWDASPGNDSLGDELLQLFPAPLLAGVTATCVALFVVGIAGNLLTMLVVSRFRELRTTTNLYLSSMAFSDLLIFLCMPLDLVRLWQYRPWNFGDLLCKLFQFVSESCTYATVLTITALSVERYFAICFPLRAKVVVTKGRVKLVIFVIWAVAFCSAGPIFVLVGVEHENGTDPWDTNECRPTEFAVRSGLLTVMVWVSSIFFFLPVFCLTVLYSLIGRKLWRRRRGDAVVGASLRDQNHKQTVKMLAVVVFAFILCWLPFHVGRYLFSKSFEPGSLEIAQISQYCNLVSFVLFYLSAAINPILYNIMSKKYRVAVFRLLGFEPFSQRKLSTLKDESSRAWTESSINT
- protocol_text: Ghrelin antagonist potency (IC50) with calcium FLIPR assay, ghrelin 10 nM
- Format: cell-based
- run_conditions: ghrelin antagonist potency, read-out: IC50 (Activity)
Decide using IC50 alone. Strictly below 40 nM: satisfied. Equal to or above 40 nM: not satisfied.

INSERT INTO assay_data (compound, discrete_label) VALUES
  ('C[C@H](NC(=O)Nc1ccc(S(=O)(=O)C2CCN(C)CC2)cc1)c1ccccc1', 'not satisfied'),
  ('C[C@H](NC(=O)Nc1ccc(S(=O)(=O)Cc2ccc(C(=O)O)cc2)cc1)c1cccc(Cl)c1Cl', 'not satisfied'),
  ('CN1Cc2ccc(CS(=O)(=O)c3ccc(NC(=O)NC(c4ccccc4)C(F)(F)F)cc3)cc2C1 (centres unmarked)', 'satisfied'),
  ('C[C@H](NC(=O)Nc1ccc(S(=O)(=O)Nc2ccc3c(c2)CNCC3)cc1)c1cccc(Cl)c1Cl', 'satisfied'),
  ('Cl.O=C(NCc1cccc(Cl)c1Cl)Nc1ccc(S(=O)(=O)Cc2ccc3c(c2)CNC3)cc1', 'satisfied');

Check if IC50 falls below 40 nM for C[C@H](NC(=O)Nc1ccc(S(=O)(=O)Cc2ccc3c(c2)CNC3)cc1)c1ccccc1 . satisfied

Check if IC50 falls below 40 nM for CC(NC(=O)N(O)c1ccc(S(=O)(=O)Nc2ccc3c(c2)CNC3)cc1)c1ccccc1 (centres unmarked) . not satisfied

Check if IC50 falls below 40 nM for C[C@H](NC(=O)Nc1ccc(S(=O)(=O)Cc2cccc(O)c2)cc1)c1cccc(Cl)c1Cl . not satisfied
